- System: HepG2 cells
- PROTOCOL: MTT antiproliferative assay on HepG2
- Type: cell-based
- MEASUREMENT SETUP: MTT assay; mean ± S.D. (n = 3); read-out: Cytotoxicity in IC50, HepG2
Recorded measurements of IC50, one per entry

[
  {
    "COMPOUND STRUCTURE STRING": "CN1CCc2sc3nc(-c4ccc(Cl)cc4)[nH]c(=O)c3c21",
    "IC50 [µM]": 3.11
  },
  {
    "COMPOUND STRUCTURE STRING": "COc1ccc(-c2nc3sc4c(c3c(=O)[nH]2)N(C)CC4)cc1",
    "IC50 [µM]": 4.3
  },
  {
    "COMPOUND STRUCTURE STRING": "CCOC(=O)c1c(NC(=S)Nc2cc(C)ccc2Cl)sc2c1N(C)CC2",
    "IC50 [µM]": 3.02
  }
]

---

- System: PC-3 cells
- PROTOCOL: MTT antiproliferative assay on PC-3
- Type: cell-based
- MEASUREMENT SETUP: MTT assay; mean ± S.D. (n = 3); read-out: Cytotoxicity in IC50, PC-3

[
  {
    "COMPOUND STRUCTURE STRING": "COc1ccc(-c2nc3sc4c(c3c(=O)[nH]2)N(C)CC4)cc1",
    "IC50": "7.47 µM"
  }
]

---

[
  {
    "COMPOUND STRUCTURE STRING": "CCOC(=O)c1c(/N=C(/Nc2cc(C)ccc2Cl)SCC(=O)Nc2ccc(Cl)cc2)sc2c1N(C)CC2",
    "melting point": "82 to 83 °C"
  },
  {
    "COMPOUND STRUCTURE STRING": "CCOC(=O)c1c(/N=C(/NC)SCC(=O)Nc2ccc(Cl)cc2)sc2c1N(C)CC2",
    "melting point": "140 to 141 °C"
  },
  {
    "COMPOUND STRUCTURE STRING": "CCOC(=O)c1c(/N=C(/Nc2cc(C)ccc2Cl)SCC(=O)Nc2ccc(Br)cc2)sc2c1N(C)CC2",
    "melting point": "> 250 °C"
  },
  {
    "COMPOUND STRUCTURE STRING": "CN1CCc2sc3nc(-c4ccccc4)[nH]c(=O)c3c21",
    "melting point": "> 250 °C"
  },
  {
    "COMPOUND STRUCTURE STRING": "CCNC(=S)Nc1sc2c(c1C(=O)OCC)N(C)CC2",
    "melting point": "135 to 136 °C"
  }
]

// data source = paper PMC9229165
